experiment: in vitro; conditions: human, Papp (individual replicate)
test readout: Papp A→B at 30 min (nm/s)
Only the number, expressed in nm/s, is required.

The value of Papp A→B at 30 min measured for the compound CN(C)CCC=C1c2ccccc2CCc2ccccc21 [Amitriptyline] turned out to be 166

The value of Papp A→B at 30 min measured for the compound COc1cc2nc(N3CCN(C(=O)c4ccco4)CC3)nc(N)c2cc1OC [Prazosin] turned out to be 45.6

The value of Papp A→B at 30 min measured for the compound CN1CCN(C2=Nc3cc(Cl)ccc3Nc3ccccc32)CC1 [Clozapine] turned out to be 389

----------
experiment: In vitro BBB permeability study (Papp), hCMEC/D3 mono-culture BBB model; conditions: human, Papp(cm/s) Mean, Figure 2P; group GDNF; group mean
test readout: Papp A→B at 30 min

The value of Papp A→B at 30 min measured for the compound O=C1OC2(c3ccc(O)cc3Oc3cc(O)ccc32)c2ccccc21 [fluorescein, fluorescein sodium] turned out to be 23.5 ×10⁻⁶ cm/s

Data origin: paper PMC11524583
